biological target: Recombinant Human Anaplastic Lymphoma Kinase (Homo sapiens, UniProt Q9UM73); construct: purchased Invitrogen, Carlsbad, Calif; test: ALK HTRF kinase assay; type: biochemical; details: compound at a concentration of 500 nM or 1 mM (not specified); cells shown as percentage
Sequence (Q9UM73 19-1620): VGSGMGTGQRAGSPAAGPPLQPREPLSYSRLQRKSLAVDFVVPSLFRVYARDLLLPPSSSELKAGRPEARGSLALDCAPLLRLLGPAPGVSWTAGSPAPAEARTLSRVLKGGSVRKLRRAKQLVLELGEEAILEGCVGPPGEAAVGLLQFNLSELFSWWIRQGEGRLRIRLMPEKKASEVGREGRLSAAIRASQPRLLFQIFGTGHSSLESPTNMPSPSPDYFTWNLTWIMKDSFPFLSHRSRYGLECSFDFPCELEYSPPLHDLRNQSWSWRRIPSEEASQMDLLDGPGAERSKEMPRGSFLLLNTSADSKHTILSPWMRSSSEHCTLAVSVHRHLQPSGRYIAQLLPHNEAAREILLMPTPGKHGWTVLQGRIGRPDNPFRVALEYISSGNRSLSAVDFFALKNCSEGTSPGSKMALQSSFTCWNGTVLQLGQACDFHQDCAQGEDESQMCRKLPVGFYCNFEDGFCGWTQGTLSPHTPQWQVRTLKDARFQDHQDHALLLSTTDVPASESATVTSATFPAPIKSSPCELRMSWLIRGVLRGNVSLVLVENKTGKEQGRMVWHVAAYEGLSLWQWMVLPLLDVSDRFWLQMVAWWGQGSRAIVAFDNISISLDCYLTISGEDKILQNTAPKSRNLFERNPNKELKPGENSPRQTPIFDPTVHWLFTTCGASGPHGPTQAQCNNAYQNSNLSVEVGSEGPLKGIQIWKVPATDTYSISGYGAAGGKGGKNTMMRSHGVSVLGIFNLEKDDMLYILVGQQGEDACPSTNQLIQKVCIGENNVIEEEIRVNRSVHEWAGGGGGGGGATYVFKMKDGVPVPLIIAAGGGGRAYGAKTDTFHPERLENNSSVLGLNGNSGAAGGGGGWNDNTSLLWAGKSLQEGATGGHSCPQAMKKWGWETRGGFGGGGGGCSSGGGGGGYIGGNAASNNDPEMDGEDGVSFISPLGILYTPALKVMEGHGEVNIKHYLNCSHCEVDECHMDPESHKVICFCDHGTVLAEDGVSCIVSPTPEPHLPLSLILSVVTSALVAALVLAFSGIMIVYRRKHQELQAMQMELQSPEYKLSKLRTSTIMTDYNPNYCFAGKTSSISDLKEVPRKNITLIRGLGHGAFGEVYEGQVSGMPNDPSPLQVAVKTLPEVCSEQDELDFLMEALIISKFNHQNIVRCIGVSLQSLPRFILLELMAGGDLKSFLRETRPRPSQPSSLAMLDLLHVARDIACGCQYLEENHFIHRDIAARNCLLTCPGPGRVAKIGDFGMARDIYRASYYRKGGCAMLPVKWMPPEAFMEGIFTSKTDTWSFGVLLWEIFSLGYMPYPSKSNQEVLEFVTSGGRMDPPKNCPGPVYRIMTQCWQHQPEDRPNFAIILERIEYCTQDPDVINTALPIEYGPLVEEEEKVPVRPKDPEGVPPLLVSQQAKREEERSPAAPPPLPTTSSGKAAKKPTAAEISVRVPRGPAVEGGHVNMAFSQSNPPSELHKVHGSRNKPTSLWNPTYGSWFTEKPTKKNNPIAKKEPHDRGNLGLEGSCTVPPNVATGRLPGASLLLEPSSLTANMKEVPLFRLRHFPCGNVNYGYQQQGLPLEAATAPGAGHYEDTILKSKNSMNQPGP
Where a name gives a salt, the structure may show the parent alone.
Could you please report measured ALK % of inhibition at a concentration of 500 nM or 1 mM for the items listed next?
Numbers only, in %.

Query CC(=O)N1CC[C@H](NC(=O)Nc2ccc3cc2CCc2cccc(c2)Nc2ncc(Cl)c(n2)N3)C1 [Example B168, trifluoroacetate] on Recombinant Human Anaplastic Lymphoma Kinase (Homo sapiens, UniProt Q9UM73); ALK % of inhibition at a concentration of 500 nM or 1 mM returned: 21

Report ALK % of inhibition at a concentration of 500 nM or 1 mM for each item below.
1. O=C(Nc1ccc2cc1CCc1cncc(c1)Nc1ncc(Cl)c(n1)N2)N1CCN(Cc2ccccc2)CC1
2. Cc1noc(C)c1C(=O)N1CC[C@H](NC(=O)Nc2ccc3cc2CCc2cncc(c2)Nc2ncc(Cl)c(n2)N3)C1 [Example B274, bis(trifluoroacetate)]
3. O=C(Nc1ccc2cc1CCc1cncc(c1)Nc1ncc(Cl)c(n1)N2)N[C@H]1CCN(c2nc3cccnc3o2)C1 [Example B275, tris(trifluoroacetate)]

**Result**
[46, 18, 9.8]

Report ALK % of inhibition at a concentration of 500 nM or 1 mM for each item below.
1. O=C(Nc1ccc2cc1CCc1cncc(c1)Nc1ncc(Cl)c(n1)N2)N1CCN(c2ccc(C(F)(F)F)cn2)CC1 [Example B301, tris(trifluoroacetate)]
2. Cc1csc(NC(=O)Nc2ccc3cc2CCc2cccc(c2)Nc2ncc(Cl)c(n2)N3)c1 [Example B120, trifluoroacetate]

**Result**
[58, 16]

---

molecular target: human JAK3 (a.a. 781-1124) (Homo sapiens); construct: JAK3 (a.a. 781-1124); His tag (N); made in house; host or cells: insect cells (baculovirus); test: In vitro JAK kinase assay (HTRF, phosphorylation of a biotinylated peptide), JAK3; format: biochemical; details: method AA1 (3 μM ATP) or AA2 (1000 μM ATP), not stated per value
Sequence (P52333 781-1124): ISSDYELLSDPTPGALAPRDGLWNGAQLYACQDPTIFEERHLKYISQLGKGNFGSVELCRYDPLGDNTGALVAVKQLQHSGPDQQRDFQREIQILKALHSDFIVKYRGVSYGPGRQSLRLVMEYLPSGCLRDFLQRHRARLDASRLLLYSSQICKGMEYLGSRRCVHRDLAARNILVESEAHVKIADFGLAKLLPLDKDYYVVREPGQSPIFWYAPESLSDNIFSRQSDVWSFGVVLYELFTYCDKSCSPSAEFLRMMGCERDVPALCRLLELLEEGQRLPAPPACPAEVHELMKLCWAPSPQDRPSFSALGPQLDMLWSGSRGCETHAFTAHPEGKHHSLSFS
Where a name gives a salt, the structure may show the parent alone.
Assay Endpoint: IC50 (nM)
Numbers only, in nM.

Noted for CCC(=O)N1CCC(CC(=O)Nc2ccc3cc2CCc2cccc(c2)Nc2ncc(Cl)c(n2)N3)CC1 [Example A90, trifluoroacetate] : its IC50 reads 68

---
Noted for CC(=O)N1CCC(CC(=O)Nc2ccc3cc2CCc2cncc(c2)Nc2ncc(Cl)c(n2)N3)CC1 [Example A76, bis(trifluoroacetate)] : its IC50 reads 124

---

molecular target: human JAK1 (a.a. 837-1142) (Homo sapiens, UniProt P23458); construct: human JAK1 (a.a. 837-1142); His tag (N); made in house; host or cells: insect cells (baculovirus); test: In vitro JAK kinase assay (HTRF, phosphorylation of a biotinylated peptide), JAK1; format: biochemical; settings: Table D1; read-out: JAK1 IC50
Sequence (P23458 849-1154): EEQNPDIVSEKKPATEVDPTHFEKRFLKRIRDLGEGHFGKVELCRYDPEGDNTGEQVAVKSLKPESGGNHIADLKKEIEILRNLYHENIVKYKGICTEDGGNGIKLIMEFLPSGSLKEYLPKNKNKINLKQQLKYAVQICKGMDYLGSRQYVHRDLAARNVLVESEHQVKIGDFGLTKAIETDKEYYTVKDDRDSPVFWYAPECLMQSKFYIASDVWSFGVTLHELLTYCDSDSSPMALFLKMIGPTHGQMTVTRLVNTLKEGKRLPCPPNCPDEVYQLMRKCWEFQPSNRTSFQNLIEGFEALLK
Could you please report measured pIC50 for the items listed next?
One number for each entry, as −log10 of the molar value.

Some compounds with recorded pIC50:
Noted for O=C(COc1ccc2cc1CCc1cncc(c1)Nc1ncc(Cl)c(n1)N2)N1CCN(C(=O)C2CCOC2)CC1 (stereo not drawn) [Example D271, bis(trifluoroacetate)] : its pIC50 reads 7.12

Noted for O=C(C[C@H]1CCN(c2nc3cccnc3o2)C1)Nc1ccc2cc1CCc1cncc(c1)Nc1ncc(Cl)c(n1)N2 [Example D139, tris(trifluoroacetate)] : its pIC50 reads 7.92

Noted for O=C(COc1ccc2cc1CCc1cncc(c1)Nc1ncc(Cl)c(n1)N2)N1CCN(c2nccc3occc23)CC1 [Example D245, tris(trifluoroacetate)] : its pIC50 reads 7.12

Noted for NC(=O)N1CCN(c2ccc3cc2CCc2cccc(c2)Nc2ncc(Cl)c(n2)N3)CC1 [Example D87, bis(trifluoroacetate)] : its pIC50 reads 7.74

Noted for O=C(COc1ccc2cc1CCc1cncc(c1)Nc1ncc(Cl)c(n1)N2)N1CCN(Cc2ccncc2)CC1 [Example D256, tris(trifluoroacetate)] : its pIC50 reads 6.82

Report pIC50 for each item below.
1. O=C(NCc1ccco1)N1CCC(CCOc2ccc3cc2CCc2cncc(c2)Nc2ncc(Cl)c(n2)N3)CC1 [Example D165, bis(trifluoroacetate)]
2. COCC(=O)N1CCN(C(=O)COc2ccc3cc2CCc2cncc(c2)Nc2ncc(Cl)c(n2)N3)CC1 [Example D262, bis(trifluoroacetate)]

**Result**
1: 7.28; 2: 6.82

Report pIC50 for each item below.
1. O=C(CC1CN(c2ccccn2)C1)Nc1ccc2cc1CCc1cncc(c1)Nc1ncc(Cl)c(n1)N2 [Example D153, tris(trifluoroacetate)]
2. Cn1cc(C(=O)N2CC(CC(=O)Nc3ccc4cc3CCc3cncc(c3)Nc3ncc(Cl)c(n3)N4)C2)cn1 [Example D142, bis(trifluoroacetate)]
3. Cc1cc(C(=O)N2CCC[C@H](CC(=O)Nc3ccc4cc3CCc3cncc(c3)Nc3ncc(Cl)c(n3)N4)C2)no1 [Example D209, bis(trifluoroacetate)]

**Result**
1. 7.52
2. 7.43
3. 7.19

Noted for O=C(Nc1ccc(C(F)(F)F)cc1)N1CCN(c2ccc3cc2CCc2cccc(c2)Nc2ncc(Cl)c(n2)N3)CC1 [Example D90, bis(trifluoroacetate)] : its pIC50 reads 6.90
